Target: T1, recombinant human MASP1 active protease (amino acids 297-699, C-terminal His Tag) (human, UniProt P48740 297-699)
T1 sequence: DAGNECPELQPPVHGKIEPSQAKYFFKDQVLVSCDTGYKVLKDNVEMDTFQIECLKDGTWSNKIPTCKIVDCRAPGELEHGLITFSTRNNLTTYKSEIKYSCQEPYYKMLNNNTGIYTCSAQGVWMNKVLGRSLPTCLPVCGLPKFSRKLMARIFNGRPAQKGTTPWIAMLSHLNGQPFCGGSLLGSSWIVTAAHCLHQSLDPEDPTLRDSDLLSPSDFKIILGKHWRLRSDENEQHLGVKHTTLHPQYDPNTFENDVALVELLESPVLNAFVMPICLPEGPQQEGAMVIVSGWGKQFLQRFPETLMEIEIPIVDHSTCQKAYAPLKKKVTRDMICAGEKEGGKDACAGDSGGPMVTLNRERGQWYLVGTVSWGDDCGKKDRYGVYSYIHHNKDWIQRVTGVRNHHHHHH
Test: cell-based or functional assay
Bridge positions count the residues as written; N and C are the ends. Square brackets hold non-standard residues; d marks the D form. Ends that are not written are not given here. Oic = O=C(O)[C@@H]1C[C@@H]2CCCC[C@@H]2N1; Pen = CC(C)(S)[C@H](N)C(=O)O; Orn = NCCC[C@H](N)C(=O)O; Sar = CNCC(=O)O
property.measured: human MASP1 IC50

binder	property.measured	result
[Sar][Orn][Orn][Orn]ICSRSLP[Oic]I[Pen]IP-NH2 (disulfide 6-14; N-terminus assumed; SMILES CC[C@H](C)[C@H](NC(=O)[C@H](CCCN)NC(=O)[C@H](CCCN)NC(=O)[C@H](CCCN)NC(=O)CNC)C(=O)N[C@H]1CSSC(C)(C)[C@@H](C(=O)N[C@H](C(=O)N2CCC[C@H]2C(N)=O)[C@@H](C)CC)NC(=O)[C@H]([C@@H](C)CC)NC(=O)[C@@H]2C[C@@H]3CCCC[C@@H]3N2C(=O)[C@@H]2CCCN2C(=O)[C@H](CC(C)C)NC(=O)[C@H](CO)NC(=O)[C@H](CCCNC(=N)N)NC(=O)[C@H](CO)NC1=O) [Example 405: ((N-Me)G)-(Orn)-(Orn)-(Orn)-IC+SRSLP-(Oic)-I-(Pen)+IP-NH2]	human MASP1 IC50	0.063 µM
[dF]ICSRSLP[Oic]I[Pen]IP-NH2 (disulfide 3-11; N-terminus assumed; SMILES CC[C@H](C)[C@H](NC(=O)[C@H](N)Cc1ccccc1)C(=O)N[C@H]1CSSC(C)(C)[C@@H](C(=O)N[C@H](C(=O)N2CCC[C@H]2C(N)=O)[C@@H](C)CC)NC(=O)[C@H]([C@@H](C)CC)NC(=O)[C@@H]2C[C@@H]3CCCC[C@@H]3N2C(=O)[C@@H]2CCCN2C(=O)[C@H](CC(C)C)NC(=O)[C@H](CO)NC(=O)[C@H](CCCNC(=N)N)NC(=O)[C@H](CO)NC1=O) [Example 370: fIC+SRSLP-(Oic)-I-(Pen)+IP-NH2]	human MASP1 IC50	0.035 µM
